# System: HCT116
# EXPERIMENTAL PROTOCOL: efficacy (fitted maximal change in viability relative to DMSO control); higher = less cytotoxic (negative = loss of viability)
# APPLIED CONDITIONS: 48 h
Outcome: 1 for efficacy of at least -80%; 0 for anything lower.

Please review the following examples before continuing.
COMPOUND	MEASURED TARGET	GROUP
C[C@](Cc1c[nH]c2ccccc12)(NC(=O)OC1C2CC3CC(C2)CC1C3)C(=O)NC[C@H](NC(=O)CCC(=O)O)c1ccccc1 (stereo partly drawn)	HCT116	1
Cc1ccc(-c2ccc3ncc4c(c3n2)n(C2CCN(C(=O)[C@H](C)O)CC2)c(=O)n4C)cn1	HCT116	0

Query: Is the recorded value of efficacy equal to or greater than -80% for this compound? "C[S+](=O)([O-])CCNCc1ccc(-c2ccc3ncnc(Nc4ccc(OCc5cccc(F)c5)c(Cl)c4)c3c2)o1"
Result: 0

Query: Is the recorded value of efficacy equal to or greater than -80% for this compound? "OC1=C(Cl)C=C(N\C2=C(\C(=O)NC2=O)C3=C(C=CC=C3)[N+]([O-])=O)C=C1"
Result: 1

Query: Is the recorded value of efficacy equal to or greater than -80% for this compound? "O=C(O)c1ccc2c(c1)nc(Nc1cccc(Cl)c1)c1ccncc12"
Result: 0

Query: Is the recorded value of efficacy equal to or greater than -80% for this compound? "C=CC(=O)Nc1ccc2ncnc(Nc3ccc(OCc4cccc(F)c4)c(Cl)c3)c2c1"
Result: 0

Query: Is the recorded value of efficacy equal to or greater than -80% for this compound? O=C(CCCCCCC(=O)Nc1cccnc1)NO [Pyroxamide]
Result: 0

Query: Is the recorded value of efficacy equal to or greater than -80% for this compound? "O=C(NCc1ccccc1)c1csc(Nc2ccncn2)n1"
Result: 0

* * *

# Test system: HCT116
# EXPERIMENTAL PROTOCOL: efficacy (fitted maximal change in viability relative to DMSO control); higher = less cytotoxic (negative = loss of viability)
# APPLIED CONDITIONS: 48 h
I'd be grateful if you could share measured efficacy for these entries.
One number for each entry, in %.

As a guide, the following entries are already answered.
COMPOUND	OUTCOME MEASURE	RECORDED VALUE
CC(=O)N[C@H]1CSSC[C@@H](C(N)=O)NC(=O)[C@H](C(C)C)NC(=O)[C@H](C)NC(=O)[C@H](Cc2cnc[nH]2)NC1=O [Exherin]	efficacy	-8
CC(C)Nc1cc(-c2c[nH]c(C(=O)N[C@H](CO)c3cccc(Cl)c3)c2)c(Cl)cn1 [Ulixertinib]	efficacy	-114
CNC(=O)c1cc(COc2nnc(Nc3ccc(Cl)cc3)c3ccoc23)ccn1 [Telatinib]	efficacy	-70.3
NC\1=N\C(=O)N(\C=C1F)[C@H]2C[C@H](O)[C@@H](CO)O2	efficacy	-64
Cn1cc(-c2nc(N[C@@H]3CCCC[C@@H]3N)c(F)c3c2C(=O)NC3)cn1 [TAK-659]	efficacy	-31.1

Okay, here is my list. What is efficacy for each of these?
1. OC1CCC(CC1)N2\C=N/C3=C(C2=N)C(=C([N]3CC4=CC=CC=C4)C5=CC=CC=C5)C6=CC=CC=C6 (centres undefined)
2. C=CC(=O)Nc1cc2c(Nc3ccc(F)c(Cl)c3)ncnc2cc1OCCCN1CCOCC1 [Canertinib]
3. Fc1ccc2[nH]ccc2c1-c1nc(N2CCOCC2)c2sc(CN3CCN(CC4CC4)CC3)cc2n1 [PI-3065]

Result:
[-107, -116, -95.1]

Okay, here is my list. What is efficacy for each of these?
1. COC(c1ccccc1)(c1ccccc1)[C@H](Oc1nc(C)cc(C)n1)C(=O)O [Ambrisentan]
2. COc1cc(OC)c(/C=C/[S+](=O)([O-])Cc2ccc(OC)c(OP(=O)(O)O)c2)c(OC)c1 [Briciclib]
3. COC1=CC=CC(=C1N)\C2=C\C(=O)C3=C(O2)C=CC=C3

Result:
1. -8.06
2. -61.6
3. -52.9

* * *

I'd be grateful if you could share measured AC50 cell viability for these entries.
# Test system: HCT116
# EXPERIMENTAL PROTOCOL: AC50 cell viability (CellTiter-Glo); higher = less potent
# APPLIED CONDITIONS: 48 h
Counter-ions that a name gives are not always drawn.
One number for each entry, in µM.

COMPOUND	MEASURED TARGET	VALUE UNITS	AC50 cell viability
CC(=O)[C@]1(O)Cc2c(O)c3c(c(O)c2[C@@H](O[C@H]2C[C@H](N)[C@H](O)[C@H](C)O2)C1)C(=O)c1ccccc1C3=O [Idarubicin hydrochloride]	HCT116	µM	0.661

Okay, here is my list. What is AC50 cell viability for each of these?
1. CC[S+]([O-])(=O)NC1=CC(=C(OC2=C(F)C=C(F)C=C2)C=C1)\C3=C\N(C)C(=O)C4=C3C=C[NH]4
2. COc1ccccc1C(=O)Nc1cc2c(cc1N1CCNC[C@H]1C)n(C)c(=O)n2C

Result:
1: 0.0525; 2: 16.6

Okay, here is my list. What is AC50 cell viability for each of these?
1. CCC(C)SSc1ncc[nH]1 (configuration not stated)
2. Cc1ccc(Sc2ccccc2N2CCNCC2)c(C)c1
3. CN1CCN(CC1)C2=NC3=C(C=CC=C3)C(=N2)C/4=C(/C(=O)NC4=O)C5=C[NH]C6=C5C=CC=C6
4. COC1=CC(=C2C(=O)N(COC/3=C/C(=O)N4\C=C/C=C(OCCN5CCCCC5)\C4=N3)[S+]([O-])(=O)C2=C1)C(C)C
5. Nc1nc(OCc2cc(Br)cs2)c2[nH]cnc2n1

Result:
1: 18.6; 2: 11.8; 3: 23.5; 4: 20.9; 5: 18.6

* * *

# System: HCT116
# EXPERIMENTAL PROTOCOL: efficacy (fitted maximal change in viability relative to DMSO control); higher = less cytotoxic (negative = loss of viability)
# APPLIED CONDITIONS: 48 h
Structures can show the parent of a compound that is named as a salt.
I'd be grateful if you could share measured efficacy for these entries.
Give bare numbers, in %.

As a guide, the following entries are already answered.
COMPOUND	OUTCOME MEASURE	RECORDED VALUE
O=C(c1c(F)ccc(N[S+](=O)([O-])N2CC[C@@H](F)C2)c1F)c1c[nH]c2ncc(-c3cnc(C4CC4)nc3)cc12	efficacy	-51.7
COc1ccc([S+](=O)([O-])Nc2cc(-c3c(O)ccc4ccccc34)c(O)c3ccccc23)cc1	efficacy	-95.1
[2H]C([2H])(Nc1nc(-c2ccccc2C([2H])(C([2H])([2H])[2H])C([2H])([2H])[2H])ncc1C)c1ccc(-n2ccnn2)cc1	efficacy	-36.2

Okay, here is my list. What is efficacy for each of these?
1. CNCCCC12CCC(c3ccccc31)c1ccccc12 [Maprotiline hydrochloride]
2. COc1ccc(Nc2nccc(NCCO)n2)cc1
3. C#CCC(Cc1cnc2nc(N)nc(N)c2n1)c1ccc(C(=O)N[C@@H](CCC(=O)O)C(=O)O)cc1 (some centres not stated) [Pralatrexate]
4. Fc1ccc(CNc2ncnc3ccc(F)cc23)cc1

Result:
[-93.9, -11.7, -91.1, -34.2]

* * *

I'd be grateful if you could share measured AC50 cell viability for these entries.
# Tested on: HCT116
# EXPERIMENTAL PROTOCOL: AC50 cell viability (CellTiter-Glo); higher = less potent
# APPLIED CONDITIONS: 48 h
Provide the measurement as a number trailed by its unit.

Okay, here is my list. What is AC50 cell viability for each of these?
1. CNC(=O)c1cc(Oc2ccc(NC(=O)Nc3cc(C(C)(C)C)nn3-c3ccc4ncccc4c3)c(F)c2)ccn1
2. COC(=O)Nc1ccc(-c2nc(N3CCOCC3)c3cnn(C4CCN(C(=O)OC)CC4)c3n2)cc1
3. Cc1nn(Cc2ccccc2Cl)c(C)c1CN(C)CC(O)COc1ccc(Cl)cc1 (stereo not given)
4. CN(C)c1cc2c(cc1Sc1nc3c(N)nccc3n1CCNCC(C)(C)C)OCO2
5. COC1=CC=C2Nc3cc(Cl)ccc3C(N=C3C=C(CN4CCCC4)C(=O)C(CN4CCCC4)=C3)=C2N1 [PYRONARIDINE TETRAPHOSPHATE]
6. O[C@H]1CC[C@@H](Oc2cccc3cnc(Nc4ccc5nc[nH]c5c4)nc23)CC1
7. CCNC1(C(N)=O)CCN(c2ncnc3c2nc(-c2ccccc2Cl)n3-c2ccc(Cl)cc2)CC1

Result:
1. 11.8 µM
2. 1.32 µM
3. 18.6 µM
4. 0.468 µM
5. 9.34 µM
6. 0.525 µM
7. 23.5 µM

Okay, here is my list. What is AC50 cell viability for each of these?
1. C=CC(=O)Nc1cccc(Oc2nc(Nc3ccc(N4CCN(C)CC4)cc3)ncc2Cl)c1
2. C[C@]\12CC[C@H](O)CC1=C/CC3C2CC[C@@]\4(C)C3C\C=C4[N]5C=NC6=C5C=CC=C6 (stereo not given in full)
3. Cn1cc(/C=C/C(=O)c2cccc(F)c2)cc1/C=C/C(=O)NO
4. CN1CCN(CCOc2cc(OC3CCOCC3)c3c(Nc4c(Cl)ccc5c4OCO5)ncnc3c2)CC1
5. CC(C)[C@@H](C[S+](=O)([O-])C(C)C)N1C(=O)[C@@](C)(CC(=O)O)C[C@H](c2cccc(Cl)c2)[C@H]1c1ccc(Cl)cc1
6. Cc1cc(OCCCc2c3n(c4c(-c5c(C)nn(C)c5C)c(Cl)ccc24)[C@H](C)CN(c2cn(C)c4ccc(C(=O)O)cc24)C3=O)cc(C)c1Cl

Result:
1. 4.17 µM
2. 5.9 µM
3. 14.8 µM
4. 18.6 µM
5. 1.48 µM
6. 16.6 µM

Okay, here is my list. What is AC50 cell viability for each of these?
1. CN(C)/N=N/c1nc[nH]c1C(N)=O
2. Cc1cc(O)c(-c2ccc([C@@H](C)CN(C)C)cc2)c2c1[nH]c(=O)c1sccc12

Result:
1: 10.5 µM; 2: 0.0295 µM
